Value source: ChEMBL document CHEMBL1151669

tested on: CCRF-CEM; experiment: Growth inhibition of human CEM cells after 24 hrs by trypan blue staining; assay type: functional, cell-based
Property label: pIC50
Remember the convention: pIC50 equals -log10 of concentration in molar.

Problem: Return pIC50 for the following compound: C/C=C(C)/C=C/C[C@H](C)CCC=C(C)C [CAPARRATRIENE]
Solution: 5.52
